System: rabbit skeletal myofibrils (approximately 90% fast fibers)
protocolDescription: Activation of fast skeletal myofibrils (PUMA coupled-enzyme ATPase assay, AC1.4)
Type: biochemical
testSettings: Table 4; concentration at which the compound increased enzymatic activity by 40%; calcium at pCa25
valueType: Mean AC1.4

chemicalSmiles | experimentalSystem | valueType | measurement
CC(C)(CNc1nc2c(Cl)cc(C(N)=O)cc2s1)c1ccc(F)cc1 | rabbit skeletal myofibrils (approximately 90% fast fibers) | Mean AC1.4 | A (A=<1 uM)
COc1cccc(C2(CNc3nc4ccc(C(N)=O)cc4s3)CCC2)n1 | rabbit skeletal myofibrils (approximately 90% fast fibers) | Mean AC1.4 | B (B=1-10 uM)
NC(=O)c1ccc2nc(NCC3(c4ccc(F)cc4)CCC3)sc2c1 | rabbit skeletal myofibrils (approximately 90% fast fibers) | Mean AC1.4 | A (A=<1 uM)
Clc1ccc2nc(NCC3(c4ccccn4)CCC3)sc2c1 | rabbit skeletal myofibrils (approximately 90% fast fibers) | Mean AC1.4 | B (B=1-10 uM)
N#Cc1cc(Cl)c2nc(NCC3(c4ncccc4F)CCC3)sc2c1 | rabbit skeletal myofibrils (approximately 90% fast fibers) | Mean AC1.4 | B (B=1-10 uM)

* * *

Test system: rabbit skeletal myofibrils (approximately 90% fast fibers)
protocolDescription: Activation of fast skeletal myofibrils (PUMA coupled-enzyme ATPase assay, AC1.4)
Assay type: biochemical
testSettings: Table 2; concentration at which the compound increased enzymatic activity by 40%; calcium at pCa25
valueType: Mean AC1.4

molecule | valueType | measurement
CC(C)(CNc1nc(-c2ccncc2)ns1)c1ccc(F)cc1 | Mean AC1.4 | B (B=1-10 uM)
CC(C)(CNc1nc(CNCCCO)ns1)c1ccc(F)cc1 | Mean AC1.4 | D (D=>20 uM)
CC(C)(CNc1nc(Cc2ccc(F)cc2)ns1)c1ccc(Cl)cc1 | Mean AC1.4 | A (A=<1 uM)
COc1cccc(Cc2nsc(NCC(C)c3ccc(Cl)cc3)n2)c1 (centres unmarked) | Mean AC1.4 | A (A=<1 uM)
CC(C)(CNc1nc(N2CCOCC2)ns1)c1ccc(F)cc1 | Mean AC1.4 | D (D=>20 uM)
CC(=O)OCC(=O)NCCCc1nsc(NCC(C)(C)c2ccc(F)cc2)n1 | Mean AC1.4 | C (C=10-20 uM)
CC(Nc1nc(-c2cccc(C(N)=O)c2)ns1)C(=O)c1ccc(F)cc1 (centres unmarked) | Mean AC1.4 | C (C=10-20 uM)
COC(=O)N1CCN(CCc2nsc(NCC(C)(C)c3ccc(F)cc3)n2)CC1 | Mean AC1.4 | D (D=>20 uM)
CN(C)C(=O)c1cccc(-c2nsc(NCC(C)(C)c3ccc(F)cc3)n2)c1 | Mean AC1.4 | B (B=1-10 uM)
Cc1ccc(Cc2nsc(NCCc3ccc(Cl)cc3)n2)cc1 | Mean AC1.4 | C (C=10-20 uM)
COc1ccc(CCNc2nc(Cc3ccc(C)cc3)ns2)cc1 | Mean AC1.4 | D (D=>20 uM)
COCCCc1nsc(NCC(C)(C)c2ccc(F)cc2)n1 | Mean AC1.4 | B (B=1-10 uM)
CC(C)(CNc1nc(-c2cccc(C#N)c2)ns1)c1ccc(F)cc1 | Mean AC1.4 | B (B=1-10 uM)
CC(C)(CNc1nc(-c2ccc(C(N)=O)nc2)ns1)c1ccc(F)cc1 | Mean AC1.4 | A (A=<1 uM)
CC(C)(CNc1nc(CCN2CC[C@H](O)C2)ns1)c1ccc(F)cc1 | Mean AC1.4 | C (C=10-20 uM)
CC(C)(CNc1nc(-c2cn[nH]c2)ns1)c1ccc(F)cc1 | Mean AC1.4 | B (B=1-10 uM)
NC(=O)c1cccc(-c2nsc(NCCc3ccccc3)n2)c1 | Mean AC1.4 | C (C=10-20 uM)
COc1cccc(Cc2nsc(NCCc3ccc4c(c3)OCO4)n2)c1 | Mean AC1.4 | D (D=>20 uM)
NS(=O)(=O)c1ccc(CCNc2nc(Cc3ccc(F)cc3)ns2)cc1 | Mean AC1.4 | D (D=>20 uM)
NC(=O)c1cccc(-c2nsc(NCC(=O)C3CCCCN3)n2)c1 (centres unmarked) | Mean AC1.4 | D (D=>20 uM)
COC(=O)CNc1nc(-c2cccc(C#N)c2)ns1 | Mean AC1.4 | D (D=>20 uM)
COc1cccc(Cc2nsc(NCCc3ccccc3Cl)n2)c1 | Mean AC1.4 | D (D=>20 uM)
CC(C)(CNc1nc(CCN2CCCC(O)C2)ns1)c1ccc(F)cc1 (centres unmarked) | Mean AC1.4 | C (C=10-20 uM)
